These data points were gathered from ChEMBL document CHEMBL1949631.

# method: AUC (0 to 24 hrs) in guinea pig at 1 mg/kg, po
# Format: ADME, organism-based, Cavia porcellus
# Design: time < 24 hr, dose 1 mg/kg, route oral
# appliedConditions: plasma
observable: AUC(0-t) at 24 h
Note: a bare number is incomplete; add the unit.

Endpoint output: AUC(0-t) at 24 h of Cc1cc(F)ccc1[C@H]1CN(C(=O)C(N)=O)CC[C@@H]1C(=O)N(C)[C@@H](C)c1cc(C(F)(F)F)cc(C(F)(F)F)c1 . Value? 1080 ng·h/mL

###

# method: Oral bioavailability in dog at 1 mg/kg
# Type: ADME, organism-based, Canis lupus familiaris
# appliedConditions: in vivo
observable: bioavailability

Consider the compound Cc1cc(F)ccc1[C@H]1CN(C(=O)C(N)=O)CC[C@@H]1C(=O)N(C)[C@@H](C)c1cc(C(F)(F)F)cc(C(F)(F)F)c1 and give its measured bioavailability. 40%

###

# method: Mean residence time in monkey at 1 mg/kg, po
# Format: ADME, organism-based, Macaca mulatta
# Design: dose 1 mg/kg, route oral
# appliedConditions: rhesus monkey, in vivo
observable: MRT (h)
Answers are plain numbers, in h.

Param item = Cc1cc(F)ccc1[C@H]1CN(C(=O)C(N)=O)CC[C@@H]1C(=O)N(C)[C@@H](C)c1cc(C(F)(F)F)cc(C(F)(F)F)c1 ; retrieve measured MRT. 6.4

###

# method: Metabolic stability in monkey microsomes
# Type: ADME, Macaca mulatta, Microsome
# appliedConditions: rhesus monkey
observable: Stability
Form entry: enter the amount, then its unit.

Given Cc1cc(F)ccc1[C@H]1CN(C(=O)C(N)=O)CC[C@@H]1C(=O)N(C)[C@@H](C)c1cc(C(F)(F)F)cc(C(F)(F)F)c1 , state its recorded Stability. 14 µL/min/mg

###

# Tested on: Cavia porcellus
# method: Inhibition of GR73632-induced increase in locomotor activity in Hartley guinea pig at 0.3 mg/kg, iv after 5 mins relative to control
# Type: functional
observable: inhibition in vivo at 0.3 mg/kg (%)
Answers are plain numbers, in %.

[
  {
    "compound": "CNC(=O)C(=O)N1CC[C@H](C(=O)N(C)Cc2cc(C(F)(F)F)cc(C(F)(F)F)c2)[C@@H](c2ccc(F)cc2C)C1 (racemic)",
    "unit": "%",
    "observedValue": 51.5
  },
  {
    "compound": "CC(=O)NCC(=O)N1CC[C@H](C(=O)N(C)Cc2cc(C(F)(F)F)cc(C(F)(F)F)c2)[C@@H](c2ccc(F)cc2C)C1 (racemic)",
    "unit": "%",
    "observedValue": 48.9
  },
  {
    "compound": "Cc1cc(F)ccc1[C@H]1CN(C(N)=O)CC[C@@H]1C(=O)N(C)Cc1cc(C(F)(F)F)cc(C(F)(F)F)c1 (racemic)",
    "unit": "%",
    "observedValue": 80.3
  }
]

Need inhibition in vivo at 0.3 mg/kg for each of these compounds.
1. CC(=O)N1CCC(C(=O)N2CC[C@H](C(=O)N(C)Cc3cc(C(F)(F)F)cc(C(F)(F)F)c3)[C@@H](c3ccccc3C)C2)CC1 (racemic)
2. Cc1cc(F)ccc1[C@H]1CN(C(=O)C(N)=O)CC[C@@H]1C(=O)N(C)Cc1cc(C(F)(F)F)cc(C(F)(F)F)c1 (racemic)
3. CC(=O)N1CCC(C(=O)N2CC[C@H](C(=O)N(C)Cc3cc(C(F)(F)F)cc(C(F)(F)F)c3)[C@@H](c3ccc(F)cc3)C2)CC1 (racemic)

60.1
86.7
41.4

###

# method: Oral bioavailability in guinea pig at 1 mg/kg
# Format: ADME, organism-based, Cavia porcellus
# appliedConditions: in vivo
observable: bioavailability (%)
Numbers only, in %.

# lookup: bioavailability of Cc1cc(F)ccc1[C@H]1CN(C(=O)C(N)=O)CC[C@@H]1C(=O)N(C)[C@@H](C)c1cc(C(F)(F)F)cc(C(F)(F)F)c1 83

###

# method: AUC (0 to 24 hrs) in monkey at 1 mg/kg, po
# Type: ADME, organism-based, Macaca mulatta
# Design: time < 24 hr, dose 1 mg/kg, route oral
# appliedConditions: rhesus monkey, plasma
observable: AUC(0-t) at 24 h (ng·h/mL)
One number for each entry, in ng·h/mL.

Given Cc1cc(F)ccc1[C@H]1CN(C(=O)C(N)=O)CC[C@@H]1C(=O)N(C)[C@@H](C)c1cc(C(F)(F)F)cc(C(F)(F)F)c1 , state its recorded AUC(0-t) at 24 h. 1040

###

# method: Metabolic stability in human liver microsomes assessed as parent compound remaining at 1 uM after 15 to 30 mins by HPLC analysis
# Type: ADME, Microsome
# appliedConditions: liver microsomes, read-out: Stability
Decision: microsomal CLint at 1 µM compared against 100 µL/min/mg; not below it gives t, below it gives f.

Consider the worked cases shown below.
[
  {
    "compound": "CC(=O)N1CCC(C(=O)N2CC[C@H](C(=O)N(C)Cc3cc(C(F)(F)F)cc(C(F)(F)F)c3)[C@@H](c3ccc(F)cc3C)C2)CC1 (racemic)",
    "discreteLabel": "t"
  },
  {
    "compound": "Cc1cc(F)ccc1[C@H]1CN(C(N)=O)CC[C@@H]1C(=O)N(C)Cc1cc(C(F)(F)F)cc(C(F)(F)F)c1 (racemic)",
    "discreteLabel": "t"
  },
  {
    "compound": "Cc1cc(F)ccc1[C@H]1CN(C(=O)C(N)=O)CC[C@@H]1C(=O)N(C)[C@@H](C)c1cc(C(F)(F)F)cc(C(F)(F)F)c1",
    "discreteLabel": "f"
  },
  {
    "compound": "Cc1cc(F)ccc1[C@H]1CN(C(=O)C(=O)NO)CC[C@@H]1C(=O)N(C)Cc1cc(C(F)(F)F)cc(C(F)(F)F)c1 (racemic)",
    "discreteLabel": "f"
  },
  {
    "compound": "CNC(=O)N1CC[C@H](C(=O)N(C)Cc2cc(C(F)(F)F)cc(C(F)(F)F)c2)[C@@H](c2ccc(F)cc2C)C1 (racemic)",
    "discreteLabel": "t"
  },
  {
    "compound": "CC(=O)NCC(=O)N1CC[C@H](C(=O)N(C)Cc2cc(C(F)(F)F)cc(C(F)(F)F)c2)[C@@H](c2ccc(F)cc2C)C1 (racemic)",
    "discreteLabel": "f"
  }
]

Determine whether measured microsomal CLint at 1 µM meets or exceeds 100 µL/min/mg for Cc1cc(F)ccc1[C@H]1CN(C(=O)C(N)=O)CC[C@@H]1C(=O)N(C)Cc1cc(C(F)(F)F)cc(C(F)(F)F)c1 f

What about this compound? CNC(=O)C(=O)N1CC[C@H](C(=O)N(C)Cc2cc(C(F)(F)F)cc(C(F)(F)F)c2)[C@@H](c2ccc(F)cc2C)C1 (racemic) t

Query Cc1cc(F)ccc1[C@H]1CN(C(=O)C(N)=O)CC[C@@H]1C(=O)N(C)[C@H](C)c1cc(C(F)(F)F)cc(C(F)(F)F)c1 next f

###

Answer each item with its documented inhibition in vivo at 0.3 mg/kg.
# System: Cavia porcellus
# method: Inhibition of GR73632-induced increase in locomotor activity in Hartley guinea pig at 0.3 mg/kg, iv after 5 mins relative to control
# Type: functional
Report the figure along with its unit, number first.

[
  {
    "molecule": "CC(=O)N1CCC(C(=O)N2CC[C@H](C(=O)N(C)Cc3cc(C(F)(F)F)cc(C(F)(F)F)c3)[C@@H](c3ccc(F)cc3C)C2)CC1 (racemic)",
    "inhibition in vivo at 0.3 mg/kg": "105%"
  },
  {
    "molecule": "CC(=O)N1CCC(C(=O)N2CC[C@@H](C(=O)N(C)Cc3cc(C(F)(F)F)cc(C(F)(F)F)c3)[C@H](c3ccccc3)C2)CC1 (racemic)",
    "inhibition in vivo at 0.3 mg/kg": "72.1%"
  }
]

inhibition in vivo at 0.3 mg/kg for CNC(=O)N1CC[C@H](C(=O)N(C)Cc2cc(C(F)(F)F)cc(C(F)(F)F)c2)[C@@H](c2ccc(F)cc2C)C1 (racemic) ? 80%

###

# method: Oral bioavailability in monkey at 1 mg/kg
# Format: ADME, organism-based, Macaca mulatta
# appliedConditions: rhesus monkey, in vivo
observable: bioavailability (%)
One number for each entry, in %.

May I ask what bioavailability has been recorded for Cc1cc(F)ccc1[C@H]1CN(C(=O)C(N)=O)CC[C@@H]1C(=O)N(C)[C@@H](C)c1cc(C(F)(F)F)cc(C(F)(F)F)c1 ? 38

###

# targetOrSystem: UniProt P25103
# Sequence (P25103 whole entry): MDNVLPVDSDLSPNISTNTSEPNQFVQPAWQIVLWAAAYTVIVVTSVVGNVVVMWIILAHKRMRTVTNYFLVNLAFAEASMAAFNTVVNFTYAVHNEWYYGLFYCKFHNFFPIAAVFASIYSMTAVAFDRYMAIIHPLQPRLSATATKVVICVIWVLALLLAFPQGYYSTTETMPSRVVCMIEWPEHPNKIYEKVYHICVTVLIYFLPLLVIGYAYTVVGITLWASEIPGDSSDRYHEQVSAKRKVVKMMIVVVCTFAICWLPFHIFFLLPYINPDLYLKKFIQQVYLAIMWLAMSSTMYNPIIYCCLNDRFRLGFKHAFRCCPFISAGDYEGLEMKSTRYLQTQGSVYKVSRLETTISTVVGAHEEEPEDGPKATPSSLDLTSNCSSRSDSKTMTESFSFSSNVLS
# method: Displacement of [125I]BH-SP from tachykinin NK1 receptor in human IM9 cells after 30 mins by scintillation counting
observable: IC50 (nM)
Answers are plain numbers, in nM.

Below: 5 compounds and their reported IC50.
[
  {
    "compound": "CC(=O)NCC(=O)N1CC[C@@H](C(=O)N(C)Cc2cc(C(F)(F)F)cc(C(F)(F)F)c2)[C@H](c2ccccc2)C1 (racemic)",
    "IC50 (nM)": 12
  },
  {
    "compound": "Cc1cc(F)ccc1[C@H]1CN(C(N)=O)CC[C@@H]1C(=O)N(C)Cc1cc(C(F)(F)F)cc(C(F)(F)F)c1 (racemic)",
    "IC50 (nM)": 0.035
  },
  {
    "compound": "CN(Cc1cc(C(F)(F)F)cc(C(F)(F)F)c1)C(=O)[C@@H]1CCNC[C@H]1c1ccccc1 (racemic)",
    "IC50 (nM)": 2.6
  },
  {
    "compound": "Cc1cc(F)ccc1[C@H]1CN(C(=O)C(N)=O)CC[C@@H]1C(=O)N(C)[C@H](C)c1cc(C(F)(F)F)cc(C(F)(F)F)c1",
    "IC50 (nM)": 0.2
  },
  {
    "compound": "CNC(=O)C(=O)N1CC[C@H](C(=O)N(C)Cc2cc(C(F)(F)F)cc(C(F)(F)F)c2)[C@@H](c2ccc(F)cc2C)C1 (racemic)",
    "IC50 (nM)": 0.11
  }
]

Kindly give each listed record's IC50.
1. CC(=O)NCC(=O)N1CC[C@H](C(=O)N(C)Cc2cc(C(F)(F)F)cc(C(F)(F)F)c2)[C@@H](c2ccc(F)cc2C)C1 (racemic)
2. Cc1cc(F)ccc1[C@H]1CN(C(=O)C(N)=O)CC[C@@H]1C(=O)N(C)Cc1cc(C(F)(F)F)cc(C(F)(F)F)c1
3. Cc1cc(F)ccc1[C@H]1CN(C(=O)C(N)=O)CC[C@@H]1C(=O)N(C)Cc1cc(C(F)(F)F)cc(C(F)(F)F)c1 (racemic)
4. CN(Cc1cc(C(F)(F)F)cc(C(F)(F)F)c1)C(=O)[C@H]1CCNC[C@H]1c1ccccc1 (relative stereo)
5. CCc1ccccc1[C@H]1CN(C(=O)C2CCN(C(C)=O)CC2)CC[C@@H]1C(=O)N(C)Cc1cc(C(F)(F)F)cc(C(F)(F)F)c1 (racemic)

0.043
0.02
0.052
5.6
0.064

Quick request: IC50 for each listed item, please.
1. CONC(=O)N1CC[C@H](C(=O)N(C)Cc2cc(C(F)(F)F)cc(C(F)(F)F)c2)[C@@H](c2ccc(F)cc2C)C1 (racemic)
2. CC(=O)N1CCC(C(=O)N2CC[C@H](C(=O)N(C)Cc3cc(C(F)(F)F)cc(C(F)(F)F)c3)[C@@H](c3ccc(C)cc3)C2)CC1 (racemic)
3. CC(=O)N1CCC(C(=O)N2CC[C@H](C(=O)N(C)Cc3cc(C(F)(F)F)cc(C(F)(F)F)c3)[C@@H](c3ccccc3C(C)C)C2)CC1 (racemic)
4. CNC(=O)N1CC[C@H](C(=O)N(C)Cc2cc(C(F)(F)F)cc(C(F)(F)F)c2)[C@@H](c2ccc(F)cc2C)C1 (racemic)

[0.073, 0.18, 0.21, 0.048]

// for each compound below, give its IC50
1. CC(=O)N1CC[C@H](C(=O)N(C)Cc2cc(C(F)(F)F)cc(C(F)(F)F)c2)[C@H](c2ccccc2)C1 (racemic)
2. CC(=O)N1CCC(C(=O)N2CC[C@H](C(=O)N(C)Cc3cc(C(F)(F)F)cc(C(F)(F)F)c3)[C@@H](c3cccc(C)c3)C2)CC1 (racemic)
3. CC(=O)N1CCC(C(=O)N2CC[C@H](C(=O)N(C)Cc3cc(C(F)(F)F)cc(C(F)(F)F)c3)[C@@H](c3ccc(F)cc3)C2)CC1 (racemic)
4. CC(=O)N1CCC(C(=O)N2CC[C@@H](C(=O)NCc3cc(C(F)(F)F)cc(C(F)(F)F)c3)[C@H](c3ccccc3)C2)CC1 (racemic)
5. CC(=O)N1CCC(C(=O)N2CC[C@H](C(=O)N(C)Cc3cc(C(F)(F)F)cc(C(F)(F)F)c3)[C@@H](c3ccccc3C)C2)CC1 (racemic)

[3.2, 0.14, 0.052, 2.7, 0.032]
